Biological target: KiSS-1 receptor (Homo sapiens)
Assay: Human kisspeptin (KISS1R) small molecule agonists, calcium flux assay in KISS1R-HEK293 cells (AID 1920064); note: % is set by controls: 0 for no effect and ±100 for the full control effect
Conditions: KISS1R-HEK293, calcium flux fluorescence, agonist; series mostly up to 76.8 µM
Calls of active or inactive are those of the source. Calls come from the whole dose curve; as a rule, active = well fitted activation curve with a large enough effect in the repeat runs; inconclusive = weak or mixed curves; inactive = flat fitted curve, though single readings scatter.
PROPERTY_NAME: activation

Consider the following illustrative entries.
COMPOUND | activation
O=C(O)Cn1c(C(=O)Nc2nc(-c3ccccc3Cl)cs2)cc2ccccc21 | inactive
CCCCCc1ccc(N)cc1 | inactive
CCOC(=O)OCC/C(SC(=O)OCC)=C(\C)N(C=O)Cc1cnc(C)nc1N | inactive
COc1ccc(C(=O)Nc2nc3ccccc3c(NCc3ccccc3)c2C#N)cc1 | inactive
CCn1c2ccccc2c2cc([N+](=O)[O-])ccc21 | inactive

Lookup: # input compound: CC(C)CCCC(C)(C)O ; wanted: its activation
Found: inactive

Lookup: Then what about the compound C/C=C(\C)C#N ?
Found: inactive

Lookup: What about C[C@@H]1C[C@H]2[C@@H]3CCC4=CC(=O)C=C[C@]4(C)[C@@]3(F)[C@@H](O)C[C@]2(C)[C@@]1(O)C(=O)COP(=O)(O)O ?
Found: inactive

Lookup: # repeat for CCCCCCCCC=O
Found: inactive

Lookup: How about CC(=O)N/N=C/c1ccc([N+](=O)[O-])o1 ?
Found: inactive

Lookup: # iterate: Cc1cc(C)cc([N+](=O)[O-])c1
Found: inactive

###

Target: Muscarinic acetylcholine receptor M1 (Homo sapiens) (UniProt P11229)
Sequence (P11229 whole entry, looked up): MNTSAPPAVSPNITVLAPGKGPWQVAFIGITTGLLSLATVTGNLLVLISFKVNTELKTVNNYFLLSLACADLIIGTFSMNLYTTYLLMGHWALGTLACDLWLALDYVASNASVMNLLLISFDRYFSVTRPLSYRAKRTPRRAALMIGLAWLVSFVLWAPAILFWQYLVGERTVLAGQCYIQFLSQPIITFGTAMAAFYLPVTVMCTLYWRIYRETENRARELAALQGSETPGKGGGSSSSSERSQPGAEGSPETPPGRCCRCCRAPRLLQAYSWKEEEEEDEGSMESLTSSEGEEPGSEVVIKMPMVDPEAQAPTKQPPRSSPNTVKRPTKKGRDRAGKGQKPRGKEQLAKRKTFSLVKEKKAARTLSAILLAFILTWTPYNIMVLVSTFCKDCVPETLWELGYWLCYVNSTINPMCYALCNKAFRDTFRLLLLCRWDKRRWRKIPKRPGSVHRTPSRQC
Assay: Cholinergic receptor muscarinic 1 (CHRM1) small molecule antagonists, cell-based qHTS assay (AID 1963588); note: nearly all actives have a fitted effect of over 40% in size
Details: CHRM1-CHO antagonist mode, calcium flux fluorescence; series mostly up to 61.5 µM
Inconclusive results are not listed. The source made the active and inactive calls. Calls follow the shape of the full dose curve.
// one of 1 (yes) for active, 0 (no) for inactive, no free text

Lookup: Please let me know the test result on file for Cc1cccc(C)c1NC(=O)c1ccc(N)cc1 .
Found: 0 (no)

Lookup: Then this compound: O=C1OC(OC(=O)c2cccnc2Nc2cccc(C(F)(F)F)c2)c2ccccc21 (stereo not drawn)
Found: 0 (no)

Lookup: # iterate: COC(=O)c1ccc(OC)cc1
Found: 0 (no)

Lookup: C=C(C)CCCC(C)CCO (stereo not drawn) , same question.
Found: 0 (no)

Lookup: Moving on to the next compound: OC1OCCOC1O (stereo not drawn)
Found: 0 (no)

Lookup: Consider next the compound CC(C)=CCC/C(C)=C/COC=O in the same way.
Found: 0 (no)

Lookup: // repeat for C[C@]12CCC(=O)C=C1CC[C@@H]1[C@@H]2CC[C@@]2(C)[C@H]1CC[C@]2(O)C(=O)CO and report
Found: 0 (no)

Lookup: Another compound: O=C(Nc1ccccc1)c1ccccc1O
Found: 0 (no)

Lookup: Further, for CCCCCCCCCI ?
Found: 1 (yes)

Lookup: Next entry: O=C(O)Cc1ccc2c(c1)C(=O)c1ccccc1CO2
Found: 0 (no)

Lookup: Next up: N#Cc1ccc(C(=O)O)cc1
Found: 0 (no)

Lookup: // next record Cc1cc(SC2=C(O)C[C@@](CCc3ccc(N)cc3)(C(C)C)OC2=O)c(C(C)(C)C)cc1CO
Found: 0 (no)

Lookup: Also check C=CC(=O)OCC(Br)CBr (stereo not drawn)
Found: 0 (no)

###

So I've got a bunch of molecules here, and I need their Potency values.
Biological target: 5-hydroxytryptamine receptor 2A (Homo sapiens) (UniProt P28223)
Sequence (P28223 whole entry, looked up): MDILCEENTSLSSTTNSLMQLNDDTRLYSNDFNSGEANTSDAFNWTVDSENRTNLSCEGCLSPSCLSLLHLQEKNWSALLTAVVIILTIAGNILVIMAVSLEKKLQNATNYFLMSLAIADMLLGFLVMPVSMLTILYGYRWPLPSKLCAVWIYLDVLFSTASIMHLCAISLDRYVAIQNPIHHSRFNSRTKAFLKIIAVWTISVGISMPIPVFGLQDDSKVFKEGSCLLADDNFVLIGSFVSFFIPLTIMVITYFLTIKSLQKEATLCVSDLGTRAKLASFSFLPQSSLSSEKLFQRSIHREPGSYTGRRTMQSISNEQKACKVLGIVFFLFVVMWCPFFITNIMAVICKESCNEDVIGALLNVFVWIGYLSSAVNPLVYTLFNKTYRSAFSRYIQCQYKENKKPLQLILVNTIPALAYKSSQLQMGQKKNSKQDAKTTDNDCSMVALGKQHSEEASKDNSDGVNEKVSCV
Assay: 5-hydroxytryptamine receptor 2A (HTR2A) small molecule agonists, cell-based qHTS assay (AID 1963587); note: potency is the fitted concentration of half-maximal effect; nearly all actives have a fitted effect of over 30% in size
Settings: HTR2A-CHO cells, calcium flux fluorescence, agonist mode; series mostly up to 76.8 µM
Records with an inconclusive call do not appear. Active and inactive are the calls of the source. Calls come from the whole dose curve.

Lookup: Reported Potency for NC1CCN(c2cccc(Cl)n2)CC1 : what is it?
Found: 0.268 µM (active)

Lookup: Check COc1cc2c(cc1OC)C(C(C(=O)N(CCc1ccc(OC)c(OC)c1OC)CCc1ccc(OC)c(OC)c1OC)c1ccccc1)=NCC2 (configuration not stated) too.
Found: 12 µM (active)

Lookup: Another molecule: CCCC(c1cc(C(C)(C)C)c(O)cc1C)c1cc(C(C)(C)C)c(O)cc1C
Found: 9.89 µM (active)

Lookup: For Cc1cc(O)c(C(C)(C)C)cc1C(C)(C)C then?
Found: 34.7 µM (active)

Lookup: Do the same for C=CCN1CCc2nc(N)sc2CC1 please
Found: 6.01 µM (active)

Lookup: Thanks! And CCCN(CCC)CCc1cccc2c1CC(=O)N2 ?
Found: 16.9 µM (active)

Lookup: How about CCCCCCCCCCCCCCN(CCO)CCO ?
Found: 21.9 µM (active)

Lookup: Also need CCCCN(CCCC)CCCOC(=O)c1ccc(N)cc1 , thanks.
Found: 3.38 µM (active)

Lookup: Can you check CCN(CC)c1ccc2c(-c3ccc(S(=O)(=O)O)cc3S(=O)(=O)[O-])c3ccc(=[N+](CC)CC)cc-3oc2c1 next?
Found: 56.7 µM (active)

Lookup: Entry to check: CCCCCCCCCCCCCCNCCO
Found: 23.9 µM (active)

Lookup: What about this molecule? CCCCCN=C(N)N/N=C/c1c[nH]c2ccc(OC)cc12
Found: 0.0107 µM (active)

Lookup: Similarly, CC(=O)O[C@@H]1C(=O)O[C@@H]2[C@H]1OC(=O)[C@@H]2OC(C)=O ?
Found: 0.756 µM (active)

###

Assay: cAMP Responsive Elements (CRE) small molecule antagonists, cell-based qHTS assay (AID 1963591); note: % is set by controls: 0 for no effect and ±100 for the full control effect
Details: CRE-bla HEK293T, beta-lactamase FRET ratio; series mostly up to 92.4 µM
Records with an inconclusive call do not appear. Active and inactive are the calls of the source. Calls come from the whole dose curve; as a rule, active = well fitted inhibition curve with a large enough effect in the signal ratio in the repeat runs (not every such curve was filed as active); inconclusive = weak or mixed curves, or effect the other way; inactive = flat fitted curve, though single readings scatter; the % refers to the signal ratio.
PROPERTY_NAME: activity change, negative = inhibition

The cases that follow already have their activity change, negative = inhibition on record.
MOLECULE | PROPERTY_NAME | VAL
CCCCCCCCC(C)=O | activity change, negative = inhibition | inactive
CCCCCCCCCCCCCCCCOS(=O)(=O)O | activity change, negative = inhibition | inactive
Fc1ccc([C@@H]2CCNC[C@H]2COc2ccc3c(c2)OCO3)cc1 | activity change, negative = inhibition | inactive
C[C@H](N)[C@H](O)c1cccc(O)c1 | activity change, negative = inhibition | inactive
O=C(O)c1cc(C(=O)O)c(C(=O)O)cc1C(=O)O | activity change, negative = inhibition | inactive

Lookup: Which activity change, negative = inhibition is listed for CC(=O)Nc1ccccc1C ?
Found: inactive

Lookup: Would you kindly repeat that for O=C(O)c1c(O)c(-c2ccccc2)nc2ccccc12 ?
Found: inactive

Lookup: For C#CC(C)(CC)OC(=O)c1ccccc1C(=O)O (centres undefined) then?
Found: inactive

Lookup: Query CC(CC(C)(C)C)CC(C)(C)CC(C)(C)C (centres undefined) next
Found: inactive

Lookup: Same for CN(C)CCN1CCN(c2cccc(Cl)c2)C1=O
Found: inactive

Lookup: Let us now turn to CNCCC(Oc1ccccc1OC)c1ccccc1 (centres undefined)
Found: inactive

Lookup: Please do the same for CCOCCOCCOC(C)=O as well.
Found: inactive

Lookup: // same read-out, input: C(=C/c1ccccc1)/c1ccccc1
Found: inactive

Lookup: Do the same for FC(F)(F)C(F)(F)C(F)(F)C(F)(F)CCI please
Found: inactive

Lookup: Please give the result for CCOC(=O)C(C)(C)C too.
Found: inactive

Lookup: Same thing, different molecule: CCCCCOC(=O)CCC
Found: inactive

Lookup: Next up: C1OCOCO1
Found: inactive

Lookup: Moving on to the next molecule: CC/C=C\CCOC(=O)c1ccccc1
Found: inactive

Lookup: Param item: CC(C)[C@H](N)C(=O)OCCOCn1cnc2c(=O)[nH]c(N)nc21
Found: inactive

Lookup: Moving on to Cc1c(C2(c3cc(Br)c(O)c(Br)c3C)OS(=O)(=O)c3ccccc32)cc(Br)c(O)c1Br
Found: inactive

Lookup: Also, CC(C)(C)C1(CCc2ccc(Cl)cc2)CO1 (centres undefined) please.
Found: inactive

Lookup: Next entry: CCCCCCCCCC(=O)N(C)C
Found: inactive

Lookup: // same read-out, input: CN(C)CCCSc1ccccc1NC(=O)/C=C/c1ccccc1
Found: inactive

Lookup: Now consider N[C@@H](Cc1cc(I)c(O)c(I)c1)C(=O)O .
Found: inactive

###

Assay: Nuclear factor erythroid 2-related factor 2/antioxidant responsive element (Nrf2/ARE) small molecule agonists: qHTS cell viability counter screen in human keratinocytes (AID 1919968); note: nearly all actives have a fitted effect of over 55% in size
Details: KeratinoSens HaCaT ARE cells viability, CellTiter-Fluor, 24 h; series mostly up to 92.4 µM
Results filed as inconclusive are left out. Active and inactive are the calls of the source. Calls come from the whole dose curve; as a rule, active = well fitted cell-killing curve with a large enough effect in the repeat runs; inconclusive = weak or mixed curves, or effect the other way; inactive = flat fitted curve, though single readings scatter.
Answer with one of the outcomes given here: t for active, f for inactive

Lookup: Kindly provide the recorded test outcome for the following molecule: CCCCc1ccc2c(n1)[C@@H](c1ccc(OC)cc1C[C@H](C)C(=O)O)[C@H](C(=O)O)[C@H]2c1ccc2c(c1)OCO2
Found: f

Lookup: Repeat for the following molecule: Nc1cc(C(=O)O)c(O)c(S(=O)(=O)O)c1
Found: f

Lookup: Try this molecule next: O=C1CCC(C2CCCCC2)CC1
Found: f

Lookup: Then what about the molecule C=C(C)C(=O)OCC(O)CO (stereo not given) ?
Found: f

Lookup: Now consider C[C@]12CCC(=O)C=C1CC[C@@H]1[C@@H]2CC[C@@]2(C)[C@H]1CC[C@]2(O)C(=O)CO .
Found: f

Lookup: Thanks! And Cc1ccco1 ?
Found: f

Lookup: // same read-out, input: CC1CCCO1 (stereo not given)
Found: f

Lookup: Then CCc1cccc(CC)c1N(COC)C(=O)CS(=O)(=O)O ?
Found: f

Lookup: Now give it for CCCCCN(CCCOC)C(=O)C(CCC(=O)O)NC(=O)c1ccc(Cl)c(Cl)c1 (stereo not given) too.
Found: f

Lookup: Input O=C(O)Cc1cn(-c2ccccc2)nc1-c1ccc(Cl)cc1
Found: f

Lookup: What do you have for CN(C[C@@H](CC[N+]12CCC(C3CCCCC3)(CC1)CC2)c1ccc(Cl)c(Cl)c1)C(=O)c1cc(C(F)(F)F)cc(C(F)(F)F)c1 ?
Found: t

Lookup: Follow-up entry: CCOC(=O)N1CCC(n2c(=O)[nH]c3cc(Cl)ccc32)CC1
Found: f

Lookup: Now try C=CC(OCC)OCC .
Found: f

Lookup: Do the same for CCOC(=O)C(O)c1ccccc1 (stereo not given) please
Found: f

Lookup: What do you get for C=CC(C)(CCC=C(C)C)OC(=O)c1ccccc1 (stereo not given) ?
Found: f

Lookup: Please give the result for O=S(=O)(c1ccccc1)c1ccc(Cl)cc1 too.
Found: f

Lookup: Also need CNC(=O)c1ccccc1 , thanks.
Found: f

Lookup: // next record CCCCNc1c(C(=O)OCC)c(C)nc2c1cnn2CC
Found: f

Lookup: Okay, and CCNc1nc(NC(C)(C)C)nc(OC)n1 ?
Found: f

Lookup: Please give the result for CCCCCCCCCC(=O)OCC too.
Found: f

Lookup: Here is the next molecule: CCCCCCCC/C=C\CCCCCCCC(=O)OC
Found: f

Lookup: What do you have for CCC(C)CCCC(C)(C)O (stereo not given) ?
Found: f

Lookup: Please answer likewise for CC(C)(O)c1ccc(CNC(=O)c2cccnc2Oc2ccc3nonc3c2)cc1
Found: f

Lookup: Repeat with Cc1ccc(S(=O)(=O)NC(=O)NN2CC3CCCC3C2)cc1 (stereo not given)
Found: f

Lookup: Then what about the molecule CCCCCCCCCI ?
Found: f

Lookup: And what about the molecule CN(C)CCOCCN(C)CCO ?
Found: f

Lookup: What about Cc1c(F)cc2c(=O)c(C(=O)O)cn3c2c1CCC3C (stereo not given) ?
Found: f

Lookup: Again, but for CCOC(=O)CS
Found: f

Lookup: Ok, now CSc1nc(NC2CC2)nc(NC(C)(C)C)n1
Found: f

Lookup: What do you have for CCOc1ccccc1O[C@H](c1ccccc1)[C@H]1CNCCO1 ?
Found: f

Lookup: Next record, please: CCCCCCCCOS(=O)(=O)O
Found: f

Lookup: Now this one: Cn1nnc2c(C(N)=O)ncn2c1=O
Found: f

Lookup: Another molecule to look at: Cc1cccc(C)c1OCC(=O)N[C@@H](Cc1ccccc1)[C@@H](O)C[C@H](Cc1ccccc1)NC(=O)[C@H](C(C)C)N1CCCNC1=O
Found: f

Lookup: // repeat for COc1cc(-c2ccc(N=C=O)c(OC)c2)ccc1N=C=O and report
Found: f

Lookup: // query: C[C@]12CCC(=O)C=C1CC[C@@H]1[C@@H]2[C@@H](O)C[C@@]2(C)[C@H]1CC[C@]2(O)C(=O)COC(=O)CCC(=O)O
Found: f

Lookup: Would you kindly repeat that for N#Cc1cc2ccccc2c2ccccc12 ?
Found: f

Lookup: Try the molecule C[C@@H]1C[C@H]2[C@@H]3CCC4=CC(=O)C=C[C@]4(C)[C@@]3(F)[C@@H](O)C[C@]2(C)[C@@]1(O)C(=O)CO
Found: f

Lookup: Next entry: CC(=O)Nc1ccc(S(=O)(=O)Nc2cc(C)on2)cc1
Found: f

Lookup: Request: CCCCOc1ccc(C(=O)CCN2CCCCC2)cc1
Found: f

Lookup: Request: COC(=O)C1=C(C)NC(C)=C(C(=O)OCCN2CCN(C(c3ccccc3)c3ccccc3)CC2)C1c1cccc([N+](=O)[O-])c1 (stereo not given)
Found: f

Lookup: Same thing, different molecule: CCNS(=O)(=O)c1ccc(C)cc1
Found: f

Lookup: Please answer likewise for C1OCOCO1
Found: f

Lookup: Do the same for CCOc1cccc(N)c1 please
Found: f

Lookup: Same again, this time with O=C1OC(=O)C2CCCCC12 (stereo not given)
Found: f

Lookup: For O=Cc1c2ccccc2c(Cl)c2ccccc12 then?
Found: f

Lookup: And what about the molecule COc1cccc(-c2ccc(/C=C\CN3CCCCCC3)cc2Cl)c1 ?
Found: t

Lookup: Same again, this time with CC/C=C\CCOC(=O)c1ccccc1O
Found: f

Lookup: Again, but for Cc1cc(O)c(C)c(C)c1O
Found: f

Lookup: What about COc1c(C)c2c(c(O)c1C/C=C(\C)CCC(=O)OCCN1CCOCC1)C(=O)OC2 ?
Found: f

Lookup: Lookup COc1cc(OC)nc(NC(=O)NS(=O)(=O)Nc2ccccc2C(=O)N(C)C)n1
Found: f
